# test-summary: in vitro
# experimental-setup: African green monkey
Entries and their CC50

INSERT INTO results (molecule, observed_property, val) VALUES
  ('CCOC(=O)NC(=O)c1ccsc1NC(=O)c1cc2ccccc2cn1 [Compound 116]', 'CC50', '> 50 µg/mL'),
  ('O=C(NC(=O)c1ccsc1NC(=O)c1nc2ccccc2s1)OC1CCCCC1 [Compound 30]', 'CC50', '> 50 µg/mL'),
  ('O=C(NC(=O)c1ccsc1NC(=O)c1ccnc(NC(=O)N2CCOCC2)c1)OCCF [Compound 48]', 'CC50', '> 50 µg/mL'),
  ('CC(C)OC(=O)NC(=O)c1ccsc1NC(=O)c1cc2c(F)cccc2s1 [Compound 330]', 'CC50', '< 25 µg/mL'),
  ('C#CCOC(=O)NC(=O)c1ccsc1NC(=O)c1nc2cnccc2s1 [Compound 100]', 'CC50', '25 to 50 µg/mL');

Could you tell me which CC50 is on file for CCOC(=O)NC(=O)c1ccsc1NC(=O)/C=C/c1ccncc1 [Compound 356] ?
25 to 50 µg/mL

Could you tell me which CC50 is on file for CCOC(=O)NC(=O)c1ccsc1NC(=O)C1=NNC(=O)CC1 [Compound 64] ?
> 50 µg/mL

Could you tell me which CC50 is on file for CCOC(=O)NC(=O)c1ccsc1NC(=O)c1cnc2cc(C)nn2c1C [Compound 65] ?
> 50 µg/mL

Could you tell me which CC50 is on file for O=C(NC(=O)c1ccsc1NC(=O)c1cnc2ccnn2c1)OCc1ccc(F)cc1 [Compound 284] ?
25 to 50 µg/mL
